System: Klebsiella pneumoniae
Assay: Tested for minimum inhibitory concentration against Klebsiella pneumoniae
Format: functional
Conditions: Klebsiella pneumoniae; read-out: MIC

COMPOUND	MIC / µg/mL
C[C@H]1CN(c2c(F)cc3c(=O)c(C(=O)O)cn(C4CC4F)c3c2F)CCN1 (stereo in doubt; 33)	0.1
CN1CCN(c2cc3c(cc2F)c(=O)c(C(=O)O)cn3[C@@H]2C[C@@H]2F)CC1 (stereo in doubt; 39)	0.1
CN1CCN(c2nc3c(cc2F)c(=O)c(C(=O)O)cn3C2CC2F)CC1 (stereo in doubt; 37)	0.2
C[C@@H]1CN(c2c(F)cc3c(=O)c(C(=O)O)cn(C4CC4F)c3c2F)CCN1 (stereo in doubt; 34)	0.1
